Molecular target: KRas^G12R (Homo sapiens, UniProt P01116, G12R)
Construct: […]; biotin (biotinylated)
Sequence (P01116 1-169 isoform P01116-2 G12R): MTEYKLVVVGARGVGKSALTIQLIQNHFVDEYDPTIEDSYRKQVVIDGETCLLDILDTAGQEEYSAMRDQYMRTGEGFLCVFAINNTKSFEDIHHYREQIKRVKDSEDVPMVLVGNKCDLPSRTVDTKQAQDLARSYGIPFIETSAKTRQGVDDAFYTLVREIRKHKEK
Test: KRas binding assay (TR-FRET displacement of Cy5 labelled tracer)
pIC50: −log10 of the molar value.
observable: pIC50

# annotated cases, reported pIC50 shown
CCc1cccc2cccc(N3CCc4c(nc(OCC56CCCN5CCC6)nc4N4CCC(O)CC(CO)C4)C3)c12 (single isomer, unassigned) [Example 172]	6.82
CCc1cccc2cccc(N3CCc4c(nc(OCC56CCCN5CCC6)nc4NC4CN(C(N)=O)C4)C3)c12	5.83
CCc1cccc2cccc(N3CCc4c(nc(OCC56CCCN5CCC6)nc4N4CCCC(C)(O)C4)C3)c12 (stereo not shown)	6.90

A. CCc1cccc2cccc(N3CCc4c(nc(OCC56CCCN5CCC6)nc4NCC4(C)CSC4)C3)c12
B. CCc1cccc2cccc(N3CCc4c(nc(OCC56CCCN5CCC6)nc4N4CCCc5ncccc5C4)C3)c12
Q) Look at A and B . Which one has the lower recorded pIC50 number? Write down the label of the entry you select.
A) A
(A: 5.08, B: 6.13)

###

Target: KRas^G12V (Homo sapiens, UniProt P01116, G12V)
Construct: […]; biotin (biotinylated)
Sequence (P01116 1-169 isoform P01116-2 G12V): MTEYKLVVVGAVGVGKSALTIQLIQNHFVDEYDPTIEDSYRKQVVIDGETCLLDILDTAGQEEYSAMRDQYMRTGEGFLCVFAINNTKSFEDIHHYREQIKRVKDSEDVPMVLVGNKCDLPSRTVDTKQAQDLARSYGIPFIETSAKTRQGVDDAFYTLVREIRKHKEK
Assay: KRas binding assay (TR-FRET displacement of Cy5 labelled tracer)
Quick reference: IC50 of the listed items.

CCc1c(F)ccc2cc(O)cc(N3CCc4c(nc(OC[C@@]56CCCN5C[C@H](F)C6)nc4N4CCOCC(CO)C4)C3)c12 (stereo partly drawn)	≤ 2 nM
CCc1c(F)ccc2cc(O)cc(N3CCc4c(nc(OC[C@@]56CCCN5C[C@H](F)C6)nc4N4CCCn5nc(C(=O)N(C)C)c(Cl)c5C4)C3)c12	≤ 2 nM

Q) Form: Entry = CCc1c(F)ccc2cc(O)cc(N3CCc4c(nc(OC[C@@]56CCCN5C[C@H](F)C6)nc4N4CCCn5nncc5C4)C3)c12 | System = KRas^G12V (Homo sapiens, UniProt P01116, G12V) | IC50 = ____
A) ≤ 2 nM

###

Quick reference: IC50 of the listed items.
Biological target: KRas^G12V (Homo sapiens, UniProt P01116, G12V)
Construct: […]; biotin (biotinylated)
Assay: KRas binding assay (TR-FRET displacement of Cy5 labelled tracer)

# annotated cases, reported IC50 shown
CCc1c(F)ccc2cc(O)cc(N3CCc4c(nc(OCC5(CN(C)C)CC5)nc4N4CCCC5(CNS(=O)(=O)N5)C4)C3)c12 (stereo not drawn) [Example 202]	≤ 2 nM
CCc1c(F)ccc2cc(O)cc(N3CCc4c(nc(OC[C@@]56CCCN5C[C@H](F)C6)nc4N4CCC[C@@](C)(O)C4)C3)c12 [Example 2]	≤ 2 nM

Q) Form: Entry = CCc1c(F)ccc2cc(O)cc(N3CCc4c(nc(OC[C@@]56CCCN5C[C@H](F)C6)nc4N4CCCC5(CNC(=O)C5)C4)C3)c12 (stereo partly drawn) [Example 197] | System = KRas^G12V (Homo sapiens, UniProt P01116, G12V) | IC50 = ____
A) ≤ 2 nM

###

Target: KRas^Q61H (Homo sapiens, UniProt P01116, Q61H)
Sequence (P01116 1-169 isoform P01116-2 Q61H): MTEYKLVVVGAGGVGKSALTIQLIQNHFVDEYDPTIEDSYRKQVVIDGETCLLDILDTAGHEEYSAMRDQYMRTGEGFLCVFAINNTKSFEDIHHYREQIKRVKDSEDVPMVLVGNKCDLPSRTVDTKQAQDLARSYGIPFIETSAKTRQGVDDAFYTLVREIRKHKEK
Experiment: biochemical
pIC50: −log10 of the molar value.
observable: pIC50

# annotated cases, reported pIC50 shown
O=C1NC(=O)C2CN(c3nc(OCC45CCCN4CCC5)nc4c3CCN(c3cccc5cccc(F)c35)C4)CC12 (stereo not drawn)	5.27
CCc1cccc2cccc(N3CCc4c(nc(OCC56CCCN5CCC6)nc4N4CC5CNC(=O)C5C4)C3)c12 (stereo not drawn)	5.85
CCc1cccc2cccc(N3CCc4c(nc(OCC56CCCN5CCC6)nc4N4CCOC(CC(N)=O)C4)C3)c12 (stereo not drawn)	6.16

1. CCc1cccc2cccc(N3CCc4c(nc(OCC56CCCN5CCC6)nc4N4CCCC(n5cccn5)C4)C3)c12 (stereo not drawn)
2. CCc1cccc2cccc(N3CCc4c(nc(OCC56CCCN5CCC6)nc4NC4CCNC(=O)C4)C3)c12 (stereo not drawn)
3. CCc1cccc2cccc(N3CCc4c(nc(OCC56CCCN5CCC6)nc4N4CCCC(O)(C(F)F)C4)C3)c12 (stereo not drawn)
4. CCc1cccc2cccc(N3CCc4c(nc(OCC56CCCN5CCC6)nc4N4CCCC(c5ccno5)C4)C3)c12 (stereo not drawn)
Q) Arrange the 4 entries by pIC50 so the values rise. Quick reminder: the answer is the labels in the order asked.
A) 2, 4, 1, 3
(2: 5.09, 4: 5.95, 1: 6.22, 3: 6.65)

Ref: patent US12421253B2
